# tgt: IL-7Rα ectodomain (residues 37-231) (human, UniProt P16871 37-231)
# Sequence (P16871 other isoform, or with tags, fused parts or gaps limits assumed): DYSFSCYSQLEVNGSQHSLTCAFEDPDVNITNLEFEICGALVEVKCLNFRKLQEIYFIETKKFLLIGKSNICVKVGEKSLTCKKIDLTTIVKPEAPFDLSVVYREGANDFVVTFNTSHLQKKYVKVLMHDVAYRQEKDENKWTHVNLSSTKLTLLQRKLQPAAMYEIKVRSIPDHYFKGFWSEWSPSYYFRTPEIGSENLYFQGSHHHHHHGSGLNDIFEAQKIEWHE
# protocol.description: BLI (Octet); biotinylated target on streptavidin sensors, miniprotein as analyte
endpoint.name: pKd
When answering, recall that pKd equals minus log10 of the concentration in mol/L, and write that number alone.

Problem: For the binder shown here, IL-7Rα_mb (designed binder) MSHHHHHHHHSENLYFQSGGGSVIEKLRKLEKQARKQGDEVLVMLARMVLEYLEKGWVSEEDADESADRIEEVLKK , give the reported pKd.
Solution: 9.51
